Listed next: entries and their corresponding abundance fitness.
B1: WW domain-containing transcription regulator protein 1, residues 116 to 162; numbered along this chain, Q9GZV5 (parent)
chain: QSYDVTDELPLPPGWEMTFTATGQRYFLNHIEKITTWQDPRKAMNQP

variants of: B1; assay: abundance fitness (aPCA) (normalised: wild type 0, dead -1); higher = more abundant; growth selection in yeast, the domain comes from the species named; conditions: Homo sapiens

{"columns": ["mutation_annotation", "abundance fitness"],
 "data": [
  ["Q24D", 0.017],
  ["M17F", -0.172],
  ["Q24F", -0.623],
  ["N29K", -0.826],
  ["T20N", -0.081],
  ["M44G", 0.004],
  ["Q1H", -0.704],
  ["K42M", -0.202],
  ["E32W", 0.094],
  ["V5L", -0.103],
  ["K42N", 0.045],
  ["K42A", -0.113],
  ["W15D", -0.532],
  ["I34Q", -0.158],
  ["T36H", -1.03],
  ["G14S", -0.379],
  ["S2H", 0.149],
  ["N29D", -0.42],
  ["P13K", -0.084],
  ["T22E", -0.028],
  ["L11W", -0.686],
  ["K42I", -0.038],
  ["T36Q", -0.376],
  ["G23Q", -0.469],
  ["W15K", -0.784],
  ["N29C", -1.04],
  ["N45W", -0.043]
]}
